Give measured MIC80 for each item. Keep answers brief.
- Test system: Candida tropicalis
- protocol summary: Antimicrobial activity against Candida tropicalis by micro-broth dilution method
- Type: functional
Answer with the value and then the unit.

Field: example entries. Status: answers known.
molecule: CN(C/C=C/C#CC(C)(C)C)Cc1cccc2ccccc12
MIC80: 0.0625 µg/mL
--
molecule: CCCCN(Cc1ccc(Br)cc1)CC(O)(Cn1cncn1)c1ccc(F)cc1F (stereo not given)
MIC80: 1 µg/mL
--
molecule: CCCCN(Cc1cccc(Cl)c1)CC(O)(Cn1cncn1)c1ccc(F)cc1F (stereo not given)
MIC80: 1 µg/mL
--
molecule: CCCCN(Cc1ccccc1F)CC(O)(Cn1cncn1)c1ccc(F)cc1F (stereo not given)
MIC80: 0.25 µg/mL
--
molecule: CCCN(Cc1ccc([N+](=O)[O-])cc1)CC(O)(Cn1cncn1)c1ccc(F)cc1F (stereo not given)
MIC80: 0.25 µg/mL
--
molecule: CCCN(Cc1ccc(F)cc1)CC(O)(Cn1cncn1)c1ccc(F)cc1F (stereo not given)
MIC80: 0.25 µg/mL
--
molecule: CC(C)N(Cc1ccc(Br)cc1)CC(O)(Cn1cncn1)c1ccc(F)cc1F (stereo not given)
MIC80: 0.0625 µg/mL
--
molecule: CCCN(Cc1ccc(Cl)cc1Cl)CC(O)(Cn1cncn1)c1ccc(F)cc1F (stereo not given)
MIC80: 4 µg/mL
--
molecule: CCCN(Cc1ccc(Cl)cc1)CC(O)(Cn1cncn1)c1ccc(F)cc1F (stereo not given)
MIC80: 0.25 µg/mL

Requested read-out: MIC80. Entry: CCCCN(Cc1ccc(C)cc1)CC(O)(Cn1cncn1)c1ccc(F)cc1F (stereo not given)
1 µg/mL

###

- System: Candida tropicalis
- protocol summary: Antimicrobial activity against Candida tropicalis by micro-broth dilution method
- Type: functional
outcome measure: MIC80 (µg/mL)
One number for each entry, in µg/mL.

compound: CCCCN(Cc1ccc(Cl)cc1Cl)CC(O)(Cn1cncn1)c1ccc(F)cc1F (stereo not drawn)
MIC80 (µg/mL): 1

State the recorded MIC80 for every item in the following list.
1. CCCN(Cc1ccc(Br)cc1)CC(O)(Cn1cncn1)c1ccc(F)cc1F (stereo not drawn)
2. CCCN(Cc1ccccc1Cl)CC(O)(Cn1cncn1)c1ccc(F)cc1F (stereo not drawn)

1. 0.0625
2. 0.25

State the recorded MIC80 for every item in the following list.
1. CCCN(Cc1ccccc1F)CC(O)(Cn1cncn1)c1ccc(F)cc1F (stereo not drawn)
2. C[C@@H]1[C@H](O)[C@@H](C)/C=C/C=C/C=C/C=C/C=C/C=C/C=C/[C@H](O[C@@H]2O[C@H](C)[C@@H](O)[C@H](N)[C@@H]2O)C[C@@H]2O[C@](O)(C[C@@H](O)C[C@@H](O)[C@H](O)CC[C@@H](O)C[C@@H](O)CC(=O)O[C@H]1C)C[C@H](O)[C@H]2C(=O)O
3. OC(Cn1cncn1)(Cn1cncn1)c1ccc(F)cc1F
4. CCCCN(Cc1cccc(F)c1)CC(O)(Cn1cncn1)c1ccc(F)cc1F (stereo not drawn)
5. CCCN(Cc1ccccc1Br)CC(O)(Cn1cncn1)c1ccc(F)cc1F (stereo not drawn)
6. CCCCN(Cc1ccccc1)CC(O)(Cn1cncn1)c1ccc(F)cc1F (stereo not drawn)
7. C[C@@H](c1ncncc1F)[C@](O)(Cn1cncn1)c1ccc(F)cc1F
8. CCCCN(Cc1ccccc1C)CC(O)(Cn1cncn1)c1ccc(F)cc1F (stereo not drawn)

0.0625
2
1
0.25
0.25
0.0625
0.0039
0.25

State the recorded MIC80 for every item in the following list.
1. CCCCN(Cc1ccc(F)cc1)CC(O)(Cn1cncn1)c1ccc(F)cc1F (stereo not drawn)
2. CC(C)N(Cc1ccc(Cl)cc1Cl)CC(O)(Cn1cncn1)c1ccc(F)cc1F (stereo not drawn)
3. CC(C)N(Cc1ccccc1)CC(O)(Cn1cncn1)c1ccc(F)cc1F (stereo not drawn)
4. CC(C)N(Cc1ccccc1Br)CC(O)(Cn1cncn1)c1ccc(F)cc1F (stereo not drawn)

0.25
1
0.25
0.0625

###

- System: Trichophyton rubrum
- protocol summary: Antimicrobial activity against Trichophyton rubrum by micro-broth dilution method
- Format: functional
Give measured MIC80 for each item. Keep answers brief.
One number for each entry, in µg/mL.

compound: CCCN(Cc1ccc(Cl)cc1)CC(O)(Cn1cncn1)c1ccc(F)cc1F (stereo not given)
MIC80 (µg/mL): 1

State the recorded MIC80 for every item in the following list.
1. CCCCN(Cc1ccccc1)CC(O)(Cn1cncn1)c1ccc(F)cc1F (stereo not given)
2. CCCCN(Cc1ccc(F)cc1)CC(O)(Cn1cncn1)c1ccc(F)cc1F (stereo not given)
3. CCCN(Cc1ccc(C)cc1)CC(O)(Cn1cncn1)c1ccc(F)cc1F (stereo not given)

0.25
1
0.25

State the recorded MIC80 for every item in the following list.
1. CN(C/C=C/C#CC(C)(C)C)Cc1cccc2ccccc12
2. CCCCN(Cc1ccc(Cl)cc1Cl)CC(O)(Cn1cncn1)c1ccc(F)cc1F (stereo not given)
3. CC(C)N(Cc1cccc(F)c1)CC(O)(Cn1cncn1)c1ccc(F)cc1F (stereo not given)
4. CCCN(Cc1cccc(F)c1)CC(O)(Cn1cncn1)c1ccc(F)cc1F (stereo not given)
5. CCCN(Cc1ccccc1)CC(O)(Cn1cncn1)c1ccc(F)cc1F (stereo not given)

1. 0.0625
2. 16
3. 0.25
4. 1
5. 0.0625

Give MIC80 (Trichophyton rubrum) of the following compound: CCCCN(Cc1ccccc1Cl)CC(O)(Cn1cncn1)c1ccc(F)cc1F (stereo not given)
1

###

- System: Nannizzia gypsea
- protocol summary: Antimicrobial activity against Microsporum gypseum by micro-broth dilution method
- Type: functional
Give measured MIC80 for each item. Keep answers brief.

compound: CCCN(Cc1ccc(CC)cc1)CC(O)(Cn1cncn1)c1ccc(F)cc1F (configuration not stated)
outcome measure: MIC80
readout value: 0.25 µg/mL

compound: CC(C)N(Cc1ccc(F)cc1)CC(O)(Cn1cncn1)c1ccc(F)cc1F (configuration not stated)
outcome measure: MIC80
readout value: 0.0625 µg/mL

compound: CC(C)N(Cc1cccc(Cl)c1)CC(O)(Cn1cncn1)c1ccc(F)cc1F (configuration not stated)
outcome measure: MIC80
readout value: 1 µg/mL

compound: C[C@@H]1[C@H](O)[C@@H](C)/C=C/C=C/C=C/C=C/C=C/C=C/C=C/[C@H](O[C@@H]2O[C@H](C)[C@@H](O)[C@H](N)[C@@H]2O)C[C@@H]2O[C@](O)(C[C@@H](O)C[C@@H](O)[C@H](O)CC[C@@H](O)C[C@@H](O)CC(=O)O[C@H]1C)C[C@H](O)[C@H]2C(=O)O
outcome measure: MIC80
readout value: 2 µg/mL

compound: CCCCN(Cc1cccc(F)c1)CC(O)(Cn1cncn1)c1ccc(F)cc1F (configuration not stated)
outcome measure: MIC80
readout value: 0.0625 µg/mL

State the recorded MIC80 for every item in the following list.
1. CC(=O)N1CCN(c2ccc(OCC3COC(Cn4ccnc4)(c4ccc(Cl)cc4Cl)O3)cc2)CC1 (configuration not stated)
2. CCc1ccc(CN(CC(O)(Cn2cncn2)c2ccc(F)cc2F)C(C)C)cc1 (configuration not stated)

0.0156 µg/mL
0.25 µg/mL

###

Give measured log10(MIC80) for each item. Keep answers brief.
- Tested on: Nannizzia gypsea
- protocol summary: Antimicrobial activity against Microsporum gypseum by micro-broth dilution method
- Type: functional
Recall that a logarithmic scale is used here: each number is log10 of MIC80 in µg/mL.

molecule: CN(C/C=C/C#CC(C)(C)C)Cc1cccc2ccccc12
log10(MIC80): 0.60

State the recorded log10(MIC80) for every item in the following list.
1. Cc1ccccc1CN(CC(O)(Cn1cncn1)c1ccc(F)cc1F)C(C)C (stereo not given)
2. CCCN(Cc1ccc(C)cc1)CC(O)(Cn1cncn1)c1ccc(F)cc1F (stereo not given)
3. CCCCN(Cc1ccccc1F)CC(O)(Cn1cncn1)c1ccc(F)cc1F (stereo not given)
4. CC(C)N(Cc1ccccc1F)CC(O)(Cn1cncn1)c1ccc(F)cc1F (stereo not given)
5. CCCCN(Cc1ccccc1Br)CC(O)(Cn1cncn1)c1ccc(F)cc1F (stereo not given)
6. CCCCN(Cc1ccc(C)cc1)CC(O)(Cn1cncn1)c1ccc(F)cc1F (stereo not given)

-1.20
-1.81
-0.60
-1.20
-0.60
-0.60

State the recorded log10(MIC80) for every item in the following list.
1. CCCN(Cc1ccc(Cl)cc1)CC(O)(Cn1cncn1)c1ccc(F)cc1F (stereo not given)
2. CC(C)N(Cc1ccccc1Br)CC(O)(Cn1cncn1)c1ccc(F)cc1F (stereo not given)
3. CCCCN(Cc1ccc(Cl)cc1)CC(O)(Cn1cncn1)c1ccc(F)cc1F (stereo not given)

-1.20
-1.81
0.00

###

Give measured MIC80 for each item. Keep answers brief.
- Tested on: Nannizzia gypsea
- protocol summary: Antimicrobial activity against Microsporum gypseum by micro-broth dilution method
- Type: functional
Give bare numbers, in mg/L.

Field: example entries. Status: answers known.
compound: CCCN(Cc1ccccc1Br)CC(O)(Cn1cncn1)c1ccc(F)cc1F (stereo unspecified)
test target: Nannizzia gypsea
outcome measure: MIC80
readout value: 0.0625
--
compound: CC(C)N(Cc1ccc(Br)cc1)CC(O)(Cn1cncn1)c1ccc(F)cc1F (stereo unspecified)
test target: Nannizzia gypsea
outcome measure: MIC80
readout value: 0.0156
--
compound: CCCCN(Cc1ccc([N+](=O)[O-])cc1)CC(O)(Cn1cncn1)c1ccc(F)cc1F (stereo unspecified)
test target: Nannizzia gypsea
outcome measure: MIC80
readout value: 0.0625
--
compound: CCCN(Cc1ccc(Br)cc1)CC(O)(Cn1cncn1)c1ccc(F)cc1F (stereo unspecified)
test target: Nannizzia gypsea
outcome measure: MIC80
readout value: 0.0625
--
compound: CCCCN(Cc1cccc(Cl)c1)CC(O)(Cn1cncn1)c1ccc(F)cc1F (stereo unspecified)
test target: Nannizzia gypsea
outcome measure: MIC80
readout value: 0.25
--
compound: CC(C)N(Cc1ccccc1Cl)CC(O)(Cn1cncn1)c1ccc(F)cc1F (stereo unspecified)
test target: Nannizzia gypsea
outcome measure: MIC80
readout value: 0.0625

State the recorded MIC80 for every item in the following list.
1. CCCN(Cc1ccc(Cl)cc1Cl)CC(O)(Cn1cncn1)c1ccc(F)cc1F (stereo unspecified)
2. Cc1ccc(CN(CC(O)(Cn2cncn2)c2ccc(F)cc2F)C(C)C)cc1 (stereo unspecified)

1: 0.0156; 2: 0.0625

State the recorded MIC80 for every item in the following list.
1. C[C@@H](c1ncncc1F)[C@](O)(Cn1cncn1)c1ccc(F)cc1F
2. CC(C)N(Cc1ccc(Cl)cc1)CC(O)(Cn1cncn1)c1ccc(F)cc1F (stereo unspecified)
3. CC(C)N(Cc1ccc([N+](=O)[O-])cc1)CC(O)(Cn1cncn1)c1ccc(F)cc1F (stereo unspecified)

[0.0039, 0.0625, 0.0156]
